system.name: T1, O3-bA
T1 chain: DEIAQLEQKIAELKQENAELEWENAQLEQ
experiment.description: two-hybrid library CCNG1;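 also: natural log of median RNA to DNA barcode read ratio; higher means stronger binding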
Values of interaction score strictly less than -0.5 map to Yes, and values of at least -0.5 map to No.

Example results:
binder	label.class
DKIAQLKQEIAELEQENAELEWENAQLEQ [O11-bA]	Yes
DEIAQLEQENAELEQKIAELKWENAQLEQ [O15-bA]	Yes
DKNAQLKQKIAELKQKNAELKWEIAQLEQ [O13-bA]	Yes
DEIAQLEQKIAELKQENAELEWENAQLEQ [O3-bA]	Yes
DEIAQLEQKIAELKQKNAELKWKNAQLKQ [O12-bA]	No

**Q:** Is the reported interaction score for DENAQLEQKNAELKQKIAELKWKIAQLKQ [O2-bA] strictly below -0.5?
**A:** No

**Q:** # strict comparison: is reported interaction score < -0.5? input = DKIAQLKQKNAELKQEIAELEWKNAQLKQ [O16-bA]
**A:** Yes

The reported numbers originate from paper PMC10397247.
